- Tested on: E. coli ATCC 25922
- Type: cell-based, Escherichia coli
- details: Table S3, counter-ion exchange series (TFA, HCl, AcOH salts); mean of triplicate
Structures can show the parent of a compound that is named as a salt. Square brackets hold non-standard residues; d marks the D form. Peptide text beside a SMILES is read from it. Nspe = C[C@H](NCC(=O)O)c1ccccc1; Nlys = NCCCCNCC(=O)O
readoutType: MIC E. coli ATCC25922

Data request: Record C[C@@H](c1ccccc1)N(CC(N)=O)C(=O)CN(C(=O)CN(CCCCN)C(=O)CN(C(=O)CN(C(=O)CN(CCCCN)C(=O)CN(C(=O)CN(C(=O)CN(CCCCN)C(=O)CN(C(=O)CN(C(=O)CNCCCCN)[C@@H](C)c1ccccc1)[C@@H](C)c1ccccc1)[C@@H](C)c1ccccc1)[C@@H](C)c1ccccc1)[C@@H](C)c1ccccc1)[C@@H](C)c1ccccc1)[C@@H](C)c1ccccc1 [1-HCl] (H-[Nlys][Nspe][Nspe][Nlys][Nspe][Nspe][Nlys][Nspe][Nspe][Nlys][Nspe][Nspe]-NH2) : what is its MIC E. coli ATCC25922 with E. coli ATCC 25922?
Data returned: 6.3 µM

###

- System: rat erythrocytes
- assayText: Hemolysis assay
- Type: cell-based
- details: pH 7.4
Square brackets hold non-standard residues; d marks the D form. Peptide text beside a SMILES is read from it. Gly(N(CH2)2(3-indolyl)) = O=C(O)CNCCc1c[nH]c2ccccc12; Nspe = C[C@H](NCC(=O)O)c1ccccc1; Nphe = O=C(O)CNCc1ccccc1; Nlys = NCCCCNCC(=O)O
readoutType: HC50

Data request: // lookup HC50 for C[C@@H](c1ccccc1)N(CC(=O)N(CCCCN)CC(=O)N(CCc1c[nH]c2ccccc12)CC(=O)N(CCc1c[nH]c2ccccc12)CC(N)=O)C(=O)CN(CCCCN)C(=O)CN(CCCCN)C(=O)CN(C(=O)CN(C(=O)CN(CCCCN)C(=O)CN(Cc1ccccc1)C(=O)CN(Cc1ccccc1)C(=O)CNCCCCN)[C@@H](C)c1ccccc1)[C@@H](C)c1ccccc1 [peptoid 41] (H-[Nlys][Nphe][Nphe][Nlys][Nspe][Nspe][Nlys][Nlys][Nspe][Nlys][Gly(N(CH2)2(3-indolyl))][Gly(N(CH2)2(3-indolyl))]-NH2)
Data returned: > 100 µM

###

# Hmax (100 µM) per entry
- Test system: rat erythrocytes
- assayText: Hemolysis assay
- Type: cell-based
Square brackets hold non-standard residues; d marks the D form. Peptide text beside a SMILES is read from it. Gly(N(CH2)2(3-indolyl)) = O=C(O)CNCCc1c[nH]c2ccccc12; Nspe = C[C@H](NCC(=O)O)c1ccccc1; Nlys = NCCCCNCC(=O)O
Give the value in % but do not write % after it.

Before answering, review these 2 worked examples.
molecule: C[C@@H](c1ccccc1)N(CC(N)=O)C(=O)CN(C(=O)CN(CCCCN)C(=O)CN(C(=O)CN(C(=O)CN(CCCCN)C(=O)CN(C(=O)CN(C(=O)CN(CCCCN)C(=O)CN(C(=O)CN(C(=O)CN(CCCCN)C(=O)CN(Cc1ccccc1)C(=O)CNCc1ccccc1)[C@@H](C)c1ccccc1)[C@@H](C)c1ccccc1)[C@@H](C)c1ccccc1)[C@@H](C)c1ccccc1)[C@@H](C)c1ccccc1)[C@@H](C)c1ccccc1)[C@@H](C)c1ccccc1
Hmax (100 µM), %: 105.6

molecule: C[C@@H](c1ccccc1)N(CC(N)=O)C(=O)CN(CCCCN)C(=O)CN(CCCCN)C(=O)CN(C(=O)CN(C(=O)CN(CCCCN)C(=O)CN(C(=O)CN(C(=O)CN(CCCCN)C(=O)CN(CCc1c[nH]c2ccccc12)C(=O)CN(CCc1c[nH]c2ccccc12)C(=O)CNCCCCN)[C@@H](C)c1ccccc1)[C@@H](C)c1ccccc1)[C@@H](C)c1ccccc1)[C@@H](C)c1ccccc1 [32-AcOH]
Hmax (100 µM), %: 13.8

Data request: // lookup Hmax (100 µM) for C[C@@H](c1ccccc1)N(CC(N)=O)C(=O)CN(CCCCN)C(=O)CN(CCCCN)C(=O)CN(C(=O)CN(C(=O)CN(CCCCN)C(=O)CN(C(=O)CN(C(=O)CN(CCCCN)C(=O)CN(CCc1c[nH]c2ccccc12)C(=O)CN(CCc1c[nH]c2ccccc12)C(=O)CNCCCCN)[C@@H](C)c1ccccc1)[C@@H](C)c1ccccc1)[C@@H](C)c1ccccc1)[C@@H](C)c1ccccc1 [peptoid 32]
Data returned: 4.2

Data request: // lookup Hmax (100 µM) for C[C@@H](c1ccccc1)N(CC(=O)N(CCCCN)CC(=O)N(CCc1c[nH]c2ccccc12)CC(=O)N(CCc1c[nH]c2ccccc12)CC(N)=O)C(=O)CN(CCCCN)C(=O)CN(CCCCN)C(=O)CN(C(=O)CN(C(=O)CN(CCCCN)C(=O)CN(C(=O)CN(C(=O)CNCCCCN)[C@@H](C)c1ccccc1)[C@@H](C)c1ccccc1)[C@@H](C)c1ccccc1)[C@@H](C)c1ccccc1 [29-AcOH] (H-[Nlys][Nspe][Nspe][Nlys][Nspe][Nspe][Nlys][Nlys][Nspe][Nlys][Gly(N(CH2)2(3-indolyl))][Gly(N(CH2)2(3-indolyl))]-NH2)
Data returned: 5.2

Data request: // lookup Hmax (100 µM) for CC[C@H](C)[C@H](N)C(=O)N[C@@H](CC(C)C)C(=O)N[C@@H](CCCNC(=N)N)C(=O)N[C@@H](Cc1c[nH]c2ccccc12)C(=O)N1CCC[C@H]1C(=O)N[C@@H](Cc1c[nH]c2ccccc12)C(=O)N[C@@H](Cc1c[nH]c2ccccc12)C(=O)N1CCC[C@H]1C(=O)N[C@@H](Cc1c[nH]c2ccccc12)C(=O)N[C@@H](CCCNC(=N)N)C(=O)N[C@@H](CCCNC(=N)N)C(=O)N[C@@H](CCCCN)C(N)=O [Omiganan, reference compound] (H-ILRWPWWPWRRK-NH2)
Data returned: 0

###

- Tested on: rat erythrocytes
- assayText: Hemolysis assay
- Type: cell-based
- details: pH 7.4
Square brackets hold non-standard residues; d marks the D form. Peptide text beside a SMILES is read from it. Gly(N(CH2)2(3-indolyl)) = O=C(O)CNCCc1c[nH]c2ccccc12; Nspe = C[C@H](NCC(=O)O)c1ccccc1; Nlys = NCCCCNCC(=O)O
readoutType: HC10 (µM)
Give the value in µM but do not write µM after it.

Data request: // lookup HC10 for C[C@@H](c1ccccc1)N(CC(=O)N(CCc1c[nH]c2ccccc12)CC(=O)N(CCCCN)CC(=O)N(CC(=O)N(CC(=O)N(CCCCN)CC(=O)N(CC(=O)N(CC(=O)N(CCCCN)CC(=O)N(CC(=O)N(CCc1c[nH]c2ccccc12)CC(N)=O)[C@@H](C)c1ccccc1)[C@@H](C)c1ccccc1)[C@@H](C)c1ccccc1)[C@@H](C)c1ccccc1)[C@@H](C)c1ccccc1)C(=O)CNCCCCN [peptoid 16] (H-[Nlys][Nspe][Gly(N(CH2)2(3-indolyl))][Nlys][Nspe][Nspe][Nlys][Nspe][Nspe][Nlys][Nspe][Gly(N(CH2)2(3-indolyl))]-NH2)
Data returned: 13.8

###

# Hmax (100 µM) per entry
- Tested on: rat erythrocytes
- assayText: Hemolysis assay
- Assay type: cell-based
Where a name gives a salt, the structure may show the parent alone.
Give the value in % but do not write % after it.

molecule: C[C@@H](c1ccccc1)N(CC(N)=O)C(=O)CN(C(=O)CN(CCCCN)C(=O)CN(C(=O)CN(CCc1c[nH]c2ccccc12)C(=O)CN(CCCCN)C(=O)CN(CCc1c[nH]c2ccccc12)C(=O)CN(C(=O)CN(CCCCN)C(=O)CN(C(=O)CN(C(=O)CNCCCCN)[C@@H](C)c1ccccc1)[C@@H](C)c1ccccc1)[C@@H](C)c1ccccc1)[C@@H](C)c1ccccc1)[C@@H](C)c1ccccc1 [15-HCl]
unitLabel: %
Hmax (100 µM): 33.4

Data request: // lookup Hmax (100 µM) for C[C@@H](c1ccccc1)N(CC(N)=O)C(=O)CN(C(=O)CN(CCCCN)C(=O)CN(C(=O)CN(C(=O)CN(CCCCN)C(=O)CN(C(=O)CN(C(=O)CN(CCCCN)C(=O)CN(CCc1c[nH]c2ccccc12)C(=O)CN(CCc1c[nH]c2ccccc12)C(=O)CNCCCCN)[C@@H](C)c1ccccc1)[C@@H](C)c1ccccc1)[C@@H](C)c1ccccc1)[C@@H](C)c1ccccc1)[C@@H](C)c1ccccc1 [14-HCl]
Data returned: 75.3

Data request: // lookup Hmax (100 µM) for C[C@@H](c1ccccc1)N(CC(N)=O)C(=O)CN(CCCCN)C(=O)CN(C(=O)CN(C(=O)CN(CCCCN)C(=O)CN(C(=O)CN(CCCCN)C(=O)CN(CCCCN)C(=O)CN(C(=O)CN(C(=O)CN(CCCCN)C(=O)CN(C(=O)CNCCc1c[nH]c2ccccc12)[C@@H](C)c1ccccc1)[C@@H](C)c1ccccc1)[C@@H](C)c1ccccc1)[C@@H](C)c1ccccc1)[C@@H](C)c1ccccc1)[C@@H](C)c1ccccc1
Data returned: 12.7
